Tested on: pancreatic cancer cell line (BXPC3)
assaySummary: tumor cell proliferation inhibition (CTG), pancreatic cancer cell line
Assay type: cell-based
details: Homo sapiens, BXPC-3, 72 hours
pIC50: −log10 of the molar value.
valueType: pIC50

molecule | measuredOn | pIC50
COc1cc2nccc(Oc3c(F)cc(NC(=O)NC4CC4)c(Cl)c3F)c2cc1C(=O)NC(C)(C)CO | pancreatic cancer cell line (BXPC3) | < 5.00

pIC50 lookup needed for COc1cc2nccc(Oc3c(F)cc(NC(=O)NC4CC4)c(Cl)c3OC)c2cc1C#N , thanks.
< 5.00

Same question for COc1cc2nccc(Oc3c(F)cc(NC(=O)NC4CC4)c(Cl)c3F)c2cc1C(=O)NC1(C(F)(F)F)CC1 please.
< 5.00

Then this molecule: COc1cc2nccc(Oc3c(F)cc(NC(=O)NC4CC4)c(Cl)c3F)c2cc1C(=O)NCCC#N
> 5.30

Try COc1cc2nccc(Oc3c(F)cc(NC(=O)NC4CC4)c(Cl)c3F)c2cc1C(=O)NC(CO)C(F)(F)F (centres unmarked) next.
< 5.00

Try this molecule too: COc1cc2nccc(Oc3c(F)cc(NC(=O)NC4CC4)c(Cl)c3F)c2cc1C(=O)NCC(F)(F)F
> 5.30

Another molecule to check: N#CCOc1cc2nccc(Oc3c(F)cc(NC(=O)NC4CC4)c(Cl)c3F)c2cc1C(N)=O
> 5.30

Consider next the molecule COc1cc2nccc(Oc3c(F)cc(NC(=O)NC4CC4)c(Cl)c3F)c2cc1C(=O)N1CCC1 in the same way.
< 5.00
